target.or.system: T1, His-tagged CEACAM1 (human, UniProt P13688 35-428)
T1 construct: 45 kDa SPR analyte; also called CEACAM1-HIS; CEACAM1 analyte
T1 sequence: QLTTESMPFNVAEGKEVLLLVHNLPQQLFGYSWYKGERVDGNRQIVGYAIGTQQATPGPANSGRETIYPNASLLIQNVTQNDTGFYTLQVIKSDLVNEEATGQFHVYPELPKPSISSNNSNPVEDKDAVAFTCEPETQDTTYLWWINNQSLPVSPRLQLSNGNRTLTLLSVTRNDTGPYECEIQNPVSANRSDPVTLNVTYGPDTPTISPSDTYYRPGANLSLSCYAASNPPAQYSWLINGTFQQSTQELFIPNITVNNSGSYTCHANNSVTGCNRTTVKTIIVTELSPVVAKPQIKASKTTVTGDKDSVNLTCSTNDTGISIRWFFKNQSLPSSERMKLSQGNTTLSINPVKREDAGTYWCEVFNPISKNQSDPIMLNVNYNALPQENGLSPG
method: SPR single-cycle, supernatant IgG captured
experimental.readout: pKd
Note: pKd values are expressed as the negative base-10 logarithm of concentration in M.

Worked set:
[
  {
    "binder": "CP09E05/CP08F05 (antibody, IgG4, V domains shown, IgG4 (S241P), kappa) VH: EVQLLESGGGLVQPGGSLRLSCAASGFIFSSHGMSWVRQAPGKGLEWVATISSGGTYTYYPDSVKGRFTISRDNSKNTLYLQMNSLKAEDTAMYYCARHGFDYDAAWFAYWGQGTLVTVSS VL: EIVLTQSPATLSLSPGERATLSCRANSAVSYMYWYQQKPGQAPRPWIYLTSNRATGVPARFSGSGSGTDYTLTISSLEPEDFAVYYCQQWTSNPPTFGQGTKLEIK",
    "value.measured": 6.60
  },
  {
    "binder": "CP09C02/CP08E05 (antibody, IgG4, V domains shown, IgG4 (S241P), kappa) VH: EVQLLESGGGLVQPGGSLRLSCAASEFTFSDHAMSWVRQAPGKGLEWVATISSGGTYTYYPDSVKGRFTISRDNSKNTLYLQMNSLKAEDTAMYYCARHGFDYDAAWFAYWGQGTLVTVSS VL: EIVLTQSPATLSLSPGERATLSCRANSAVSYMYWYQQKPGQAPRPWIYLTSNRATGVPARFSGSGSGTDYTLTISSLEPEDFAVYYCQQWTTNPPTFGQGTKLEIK",
    "value.measured": 7.11
  }
]

Okay, now this binder:
Ask: May I ask what pKd has been recorded for CP09E05/CP08G09 (antibody, IgG4, V domains shown, IgG4 (S241P), kappa) VH: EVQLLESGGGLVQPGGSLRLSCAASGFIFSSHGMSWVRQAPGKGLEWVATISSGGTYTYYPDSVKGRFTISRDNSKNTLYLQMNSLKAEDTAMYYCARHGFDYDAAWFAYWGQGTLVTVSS VL: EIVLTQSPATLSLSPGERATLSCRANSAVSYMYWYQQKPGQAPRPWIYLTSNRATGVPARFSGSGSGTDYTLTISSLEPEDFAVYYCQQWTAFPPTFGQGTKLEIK ?
Result: 6.49
